Hey, just so you know, these numbers are from patent US10273237B2.

I'd be grateful if you could share measured pIC50 for these entries.
Tested on: IFNα-stimulated Kit225 T cells with STAT-dependent luciferase reporter
Assay: Kit225 T cell assay, STAT-dependent luciferase reporter, IFNα stimulated
Format: cell-based, human
Details: Homo sapiens, KIT225, 200 U/mL human recombinant IFNα, 5-6 hours, read-out: IFNa Kit225 Reporter, LE (IC50)
Entry type: numeric. Quantity: pIC50, the -log10 of concentration in molar units.

Input CNc1cc(Nc2cc(F)cn(CCOC)c2=O)nn2c(C(=O)NC3CC3)cnc12 [Example 118] , output reported pIC50.
6.82

In one line, give reported pIC50 of the entry CNc1cc(Nc2cccn(-c3ccccc3)c2=O)nn2c(C(=O)N[C@@H]3CCOC3)cnc12 [Example 7] .
6.52

Look up pIC50 of CNc1cc(Nc2cccn(-c3ccc(C(C)(C)O)cn3)c2=O)nn2c(C(=O)NC3CC3)cnc12 [Example 252] and report it.
6.72

Let me know recorded pIC50 for CNc1cc(Nc2cccn(-c3cccc(F)n3)c2=O)nn2c(C(=O)N[C@@H]3C[C@@H]3F)cnc12 [Example 145] , thanks.
8.00

Supply reported pIC50 belonging to this compound: O=C(NC1CC1)c1cnc2c3c(c(Nc4cccn(-c5ccccn5)c4=O)nn12)OCCN3 [Example 240]
6.68

Give pIC50 for the following compound: CNc1cc(Nc2cccn(-c3ccc(C(C)O)cn3)c2=O)nn2c(C(=O)NC3CC3)cnc12 (stereo not shown) [compound 254]
6.59

Supply pIC50 value. Item: CNc1cc(Nc2cccn(-c3ccc(C(=O)N4CCCC4)cn3)c2=O)nn2c(C(=O)N[C@@H]3C[C@@H]3F)cnc12 [compound 265]
7.22

Indicate its recorded pIC50; the compound in question is CNc1cc(Nc2cccn(C3CCN(C(=O)C4CCCO4)CC3)c2=O)nn2c(C(=O)NC3CC3)cnc12 (stereo not shown) [Example 247]
6.46

Answer with the recorded pIC50 of CCCCn1cc(Cl)cc(Nc2cc(NC)c3ncc(C(=O)NC4CC4)n3n2)c1=O [Example 244] only.
6.92

Determine from records and report pIC50 for CC[C@@H](C)NC(=O)c1cnc2c(NC)cc(Nc3cccn(-c4ccccn4)c3=O)nn12 [Example 74]
6.96

Report pIC50, nothing else, for this compound: CNc1cc(Nc2cccn(C3CCN(C(=O)c4ncc[nH]4)CC3)c2=O)nn2c(C(=O)NC3CC3)cnc12 [Example 245]
6.59

Return value of pIC50 for input CNc1cc(Nc2cccn(C3(C)CC3)c2=O)nn2c(C(=O)NCC(C)(C)CO)cnc12 [Example 163] , no commentary.
7.15

For CNc1cc(Nc2cccn(-c3cnc(C)cn3)c2=O)nn2c(C(=O)NCC(C)(C)CO)cnc12 [Example 6] , write its pIC50.
6.85

Give recorded pIC50. CNc1cc(Nc2cccn(-c3ccccc3)c2=O)nn2c(C(=O)N[C@H]3CCCC[C@H]3O)cnc12 [Example 188]
6.64

Check the records and state pIC50 for O=C(NC1CCC1)c1cnc2c3c(c(Nc4cccn(-c5ccccn5)c4=O)nn12)OCCN3 [Example 239]
7.00

Provide measured pIC50 value, entry: CNc1cc(Nc2cccn(C)c2=O)nn2c(C(=O)NC3(C#N)CC3)cnc12 [Example 1]
6.51

Identify pIC50 associated with the compound CNc1cc(Nc2cccn(-c3ccc(C(=O)N(C)C)cn3)c2=O)nn2c(C(=O)N[C@@H]3C[C@@H]3F)cnc12 [Example 257]
7.15

Return value of pIC50 for input CNc1cc(Nc2cccn(-c3ccc(C(F)(F)F)cc3)c2=O)nn2c(C(=O)NCC(C)(C)CO)cnc12 [Example 136] , no commentary.
7.10

Output measured pIC50 for this item: CC(C)(CO)CNC(=O)c1cnc2c3c(c(Nc4cccn(-c5ccccn5)c4=O)nn12)OCCN3 [Example 242]
6.44

Output measured pIC50 for this item: CCC(=O)N1CCC(n2cccc(Nc3cc(NC)c4ncc(C(=O)NC5CC5)n4n3)c2=O)CC1 [Example 249]
6.60

Answer with reported pIC50 of CNc1cc(Nc2cccn(C3CCN(C(=O)C4CC4(F)F)CC3)c2=O)nn2c(C(=O)NC3CC3)cnc12 (stereo not shown) [Example 248]
6.64

Assign pIC50 to the following record: CNc1cc(Nc2cccn(-c3ccc(C(F)F)cc3)c2=O)nn2c(C(=O)NCC(C)(C)CO)cnc12 [Example 124]
7.10

Answer with the recorded pIC50 of CNc1cc(Nc2cccn(C3CCN(C(C)=O)CC3)c2=O)nn2c(C(=O)NC3C[C@@H]3F)cnc12 (stereo partly shown) [Example 251] only.
6.40

Consider the compound CNc1cc(Nc2cccn(-c3ccccn3)c2=O)nn2c(C(=O)NC3CC3)cnc12 [Example 32] and give its recorded pIC50.
7.10

Identify the reported pIC50 for the following entry. CNc1cc(Nc2cccn(-c3ccc(C(=O)N(C)C)cc3)c2=O)nn2c(C(=O)N[C@@H]3C[C@@H]3F)cnc12 [compound 266]
6.96

Retrieve pIC50 measured for CNc1cc(Nc2cccn(-c3cccnn3)c2=O)nn2c(C(=O)NC(C)C)cnc12 [Example 106] and print it.
6.80

Identify pIC50 associated with the compound CNc1cc(Nc2cccn(-c3ccccn3)c2=O)nn2c(C(=O)NCCF)cnc12 [Example 101]
6.77

Give the value of pIC50 reported for the following: CNc1cc(Nc2cccn(-c3cncc(C#N)n3)c2=O)nn2c(C(=O)NCC(C)(C)CO)cnc12 [compound 258]
6.23

Given the compound CNc1cc(Nc2cccn(-c3nccs3)c2=O)nn2c(C(=O)NC3CC3)cnc12 [Example 35] , write its reported pIC50.
7.30

Provide measured pIC50 value, entry: CNc1cc(Nc2cccn(C)c2=O)nn2c(C(=O)NCC(C)(C)C)cnc12 [Example 207]
6.74

Please give the documented pIC50 of CNc1cc(Nc2cccn(-c3cccc(F)n3)c2=O)nn2c(C(=O)N[C@@H]3CCOC3)cnc12 [Example 61]
6.74

====

Tested on: IFNα-stimulated Kit225 T cells with STAT-dependent luciferase reporter
Assay: Kit225 T cell assay, STAT-dependent luciferase reporter, IFNα stimulated
Type: cell-based, human
Conditions: Homo sapiens, KIT225, 200 U/mL human recombinant IFNα, 5-6 hours, read-out: IFNa Kit225 Reporter, LE (IC50)
So I've got a bunch of compounds here, and I need their IC50 values.
Respond with the figure and its unit, in that order.

Fill in reported IC50 for this entry: `CNc1cc(Nc2cccn(-c3ccccn3)c2=O)nn2c(C(=O)NCC(C)(C)CO)cnc12`
60 nM

Hello, please tell me recorded IC50 for this one: `CNc1cc(Nc2cccn(-c3cc(C)n(C)n3)c2=O)nn2c(C(=O)NC3CCC3)cnc12`
20 nM

Assign IC50 to the following record: `CC[C@@H](C)NC(=O)c1cnc2c(NC)cc(Nc3cccn(-c4ccn(C)n4)c3=O)nn12`
30 nM

Return IC50 for the following compound: CNc1cc(Nc2cccn(-c3cccc(C(C)O)n3)c2=O)nn2c(C(=O)NC3CC3)cnc12 (centres unmarked)
110 nM

Consider the compound `CNc1cc(Nc2cccn(-c3ccc(C)nn3)c2=O)nn2c(C(=O)NC3CC3)cnc12` and give its recorded IC50.
110 nM

Please give the documented IC50 of `CNc1cc(Nc2cccn(C3CCN(CC(F)F)CC3)c2=O)nn2c(C(=O)NC3CC3)cnc12`
390 nM

For the compound `CNc1cc(Nc2cccn(-c3ncc(C)cn3)c2=O)nn2c(C(=O)N[C@@H]3C[C@@H]3F)cnc12` , report IC50.
120 nM

Using the record for `CCn1cc(Cl)cc(Nc2cc(NC)c3ncc(C(=O)NC4CC4)n3n2)c1=O` , state its measured IC50.
20 nM

====

Consider the following compounds; for each one, report its log10 of IC50.
Tested on: IFNα-stimulated Kit225 T cells with STAT-dependent luciferase reporter
Assay: Kit225 T cell assay, STAT-dependent luciferase reporter, IFNα stimulated
Type: cell-based, human
Conditions: 200 U/mL human recombinant IFNα, 5-6 hours, read-out: IFNa Kit225 Reporter, LE (IC50)
Friendly reminder: values = log10 of IC50, unit µM.

Recall the reported log10 of IC50 of CCc1ccc(-n2cccc(Nc3cc(NC)c4ncc(C(=O)N[C@@H]5C[C@@H]5F)n4n3)c2=O)nn1 [Example 181] when tested on IFNα-stimulated Kit225 T cells with STAT-dependent luciferase reporter.
-0.46

Give reported log10 of IC50 for CNc1cc(Nc2cc(C)cn(-c3ccc(C)nn3)c2=O)nn2c(C(=O)NC3CC3)cnc12 [Example 91] (IFNα-stimulated Kit225 T cells with STAT-dependent luciferase reporter)
-0.82

State, for IFNα-stimulated Kit225 T cells with STAT-dependent luciferase reporter, measured log10 of IC50 of the compound listed here: CNc1cc(Nc2cccn(-c3cc(C)on3)c2=O)nn2c(C(=O)NC3CCC3)cnc12 [Example 157]
-1.70

Param request: log10 of IC50 | system IFNα-stimulated Kit225 T cells with STAT-dependent luciferase reporter | item CNc1cc(Nc2cccn(-c3cccc(F)n3)c2=O)nn2c(C(=O)NC3(C#N)CC3)cnc12 [Example 167]
-0.89

Find the measured log10 of IC50 of CNc1cc(Nc2cccn(C)c2=O)nn2c(C(=O)NC3CCCC3)cnc12 [Example 208] with IFNα-stimulated Kit225 T cells with STAT-dependent luciferase reporter as test system.
-1.22

Fill in log10 of IC50 for CNc1cc(Nc2cccn(C3CCC(N4CCOCC4)CC3)c2=O)nn2c(C(=O)NC3CC3)cnc12 (centres unmarked) [Example 224] tested with IFNα-stimulated Kit225 T cells with STAT-dependent luciferase reporter.
-0.33

Retrieve log10 of IC50 on IFNα-stimulated Kit225 T cells with STAT-dependent luciferase reporter; query CNc1cc(Nc2cccn(C3CC3)c2=O)nn2c(C(=O)NC3CC3)cnc12 [Example 44]
-0.89

Provide IFNα-stimulated Kit225 T cells with STAT-dependent luciferase reporter log10 of IC50 reading for CNc1cc(Nc2cccn(-c3ccccc3)c2=O)nn2c(C(=O)NC3(C#N)CC3)cnc12 [Example 120] .
-1.15
